Tested on: Staphylococcus epidermidis
assay remarks: Antibacterial activity against Staphylococcus epidermidis 829/19
Format: functional
readout label: MIC (µg/mL)

Example entries begin here.
smiles text: CO[C@H]([C@H](C)[C@H]1O[C@@]2(CC[C@@](C)([C@H]3CC[C@@](CO)([C@@H]4O[C@@H]([C@H]5O[C@@](O)(COC(=O)NCCCl)[C@H](C)C[C@@H]5C)C[C@@H]4C)O3)O2)C[C@H](O)[C@H]1C)[C@H](C)C(=O)O
measurement target: Staphylococcus epidermidis
MIC / µg/mL: 4
--
smiles text: CO[C@H]([C@H](C)[C@H]1O[C@@]2(CC[C@@](C)([C@H]3CC[C@@](CO)([C@@H]4O[C@@H]([C@H]5O[C@@](O)(COC(=O)NCCCCl)[C@H](C)C[C@@H]5C)C[C@@H]4C)O3)O2)C[C@H](O)[C@H]1C)[C@H](C)C(=O)O
measurement target: Staphylococcus epidermidis
MIC / µg/mL: 4
--
smiles text: CCCCNC(=O)OC[C@]1(O)O[C@H]([C@H]2C[C@H](C)[C@H]([C@]3(CO)CC[C@H]([C@]4(C)CC[C@]5(C[C@H](O)[C@@H](C)[C@@H]([C@@H](C)[C@@H](OC)[C@H](C)C(=O)O)O5)O4)O3)O2)[C@@H](C)C[C@H]1C
measurement target: Staphylococcus epidermidis
MIC / µg/mL: 1
--
smiles text: CO[C@H]([C@H](C)[C@H]1O[C@@]2(CC[C@@](C)([C@H]3CC[C@@](CO)([C@@H]4O[C@@H]([C@H]5O[C@@](O)(COC(=O)Nc6ccccc6)[C@H](C)C[C@@H]5C)C[C@@H]4C)O3)O2)C[C@H](O)[C@H]1C)[C@H](C)C(=O)O
measurement target: Staphylococcus epidermidis
MIC / µg/mL: 0.25

a. CCNC(=O)OC[C@]1(O)O[C@H]([C@H]2C[C@H](C)[C@H]([C@]3(CO)CC[C@H]([C@]4(C)CC[C@]5(C[C@H](O)[C@@H](C)[C@@H]([C@@H](C)[C@@H](OC)[C@H](C)C(=O)O)O5)O4)O3)O2)[C@@H](C)C[C@H]1C
b. CCCCCCCCCC(=O)OC[C@]1(O)O[C@H]([C@H]2C[C@H](C)[C@H]([C@]3(CO)CC[C@H]([C@]4(C)CC[C@]5(C[C@H](O)[C@@H](C)[C@@H]([C@@H](C)[C@@H](OC)[C@H](C)C(=O)O)O5)O4)O3)O2)[C@@H](C)C[C@H]1C
Query string: // select label with min value of measured MIC from [ a , b ] Answer by quoting the chosen item's label.
Result string: b
(b: 2 µg/mL, a: 8 µg/mL)
